Recorded values, source patent US20250074911A1.

Biological target: BTK C481S (Homo sapiens (Human), UniProt Q06187, C481S)
Sequence (Q06187 whole entry C481S): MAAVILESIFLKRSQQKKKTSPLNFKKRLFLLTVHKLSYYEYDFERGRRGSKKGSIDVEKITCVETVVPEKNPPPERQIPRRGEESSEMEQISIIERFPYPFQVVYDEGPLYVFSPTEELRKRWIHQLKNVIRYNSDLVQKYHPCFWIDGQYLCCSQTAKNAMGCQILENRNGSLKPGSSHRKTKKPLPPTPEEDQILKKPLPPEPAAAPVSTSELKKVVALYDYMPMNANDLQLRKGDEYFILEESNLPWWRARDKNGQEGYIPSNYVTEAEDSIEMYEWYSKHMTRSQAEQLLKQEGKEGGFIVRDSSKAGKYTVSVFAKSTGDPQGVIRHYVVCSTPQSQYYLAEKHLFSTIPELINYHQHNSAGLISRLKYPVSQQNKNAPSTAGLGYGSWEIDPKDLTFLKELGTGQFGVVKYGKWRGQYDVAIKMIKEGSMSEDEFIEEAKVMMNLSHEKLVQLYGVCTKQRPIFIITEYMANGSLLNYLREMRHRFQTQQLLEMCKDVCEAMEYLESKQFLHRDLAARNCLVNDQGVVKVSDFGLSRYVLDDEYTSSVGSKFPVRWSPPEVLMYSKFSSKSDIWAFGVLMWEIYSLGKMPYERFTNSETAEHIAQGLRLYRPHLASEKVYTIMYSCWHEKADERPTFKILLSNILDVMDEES
Experiment: Binding kinetics measurements (Surface Plasmon Resonance) on BTK C481S
Conditions: target residence time for BTK C481S, SPR
measuredProperty: Tau (h) BTK C418S (Act)
Note: a bare number is incomplete; add the unit.

>>> measuredresult("CN1C/C=C/c2cnc(N)c3c(-c4ccc(C(=O)Nc5cc(C(F)(F)F)ccn5)cc4)nn(c23)[C@@H]2CCC[C@H](C2)NC(=O)CCCC1 [Example 20]")
"1.05 h"

Hi there! I need Tau (h) BTK C418S (Act) for each item below, if you can.
1. Nc1ncc2c3c1c(-c1ccc(C(=O)Nc4cc(C(F)(F)F)ccn4)cc1)nn3[C@@H]1CC[C@H](C1)NC(=O)CCOC/C=C/2 [Example 170]
2. N#Cc1ccnc(NC(=O)c2ccc(-c3nc4n5c(cnc(N)c35)/C=C/CCOCCC(=O)N[C@@H]3CC[C@@H]4C3)cc2)c1 [Example 201]

["2.76 h", "1.91 h"]

Would you be so kind as to report Tau (h) BTK C418S (Act) for each listed record?
1. CN1C/C=C/c2cnc(N)c3c(-c4ccc(C(=O)Nc5cc(C(F)(F)F)ccn5)cc4)nn(c23)[C@@H]2CCC[C@H](C2)NC(=O)CC1 [Example 17]
2. C[C@H]1OC/C=C/c2cnc(N)c3c(-c4ccc(C(=O)Nc5cc(C(F)(F)F)ccn5)cc4)nn(c23)[C@@H]2CCC[C@H](C2)NC1=O [Example 28]
3. C[C@@H]1CCn2nc(-c3ccc(C(=O)Nc4cc(C(F)(F)F)ccn4)cc3)c3c(N)ncc(c32)/C=C/COCCC(=O)N1 [Example 71]
4. C[C@@H]1CCn2nc(-c3ccc(C(=O)Nc4cc(C(F)(F)F)ccn4)cc3)c3c(N)ncc(c32)/C=C/CCOCC(=O)N1 [Example 59]

["14.35 h", "4.03 h", "4.52 h", "2.05 h"]
